# assay-name: Half life in mouse at 2 mg/kg, iv
# Type: ADME, organism-based
# Design: dose 2 mg/kg, route intravenous
# condition-set: in vivo
recorded-metric: half-life
Answer as a quantity: numeral, then unit.

Tell me measured half-life for "CC(C)(O)c1ccccc1-c1ccc2[nH]c(/C=C/c3ccc(C(F)(F)F)cc3)nc2c1" please.
2.75 h

====

# assay-name: Cmax in rat at 10 mg/kg, po
# Assay type: ADME, organism-based
# Set-up: dose 10 mg/kg, route oral
# condition-set: in vivo
recorded-metric: Cmax (ng/mL)
Only the number, expressed in ng/mL, is required.

Tell me measured Cmax for "CC(C)(O)c1ccccc1-c1ccc2[nH]c(/C=C/c3ccc(C(F)(F)F)cc3)nc2c1" please.
421

====

# assay-name: Metabolic stability in monkey liver microsomes assessed as compound remaining after 10 mins
# Type: ADME, Macaca mulatta
# condition-set: rhesus monkey, read-out: Stability
recorded-metric: remaining at 10 min (%)
Only the number, expressed in %, is required.

Tell me measured remaining at 10 min for "CC(C)(O)c1ccccc1-c1ccc2[nH]c(/C=C/c3ccc(C(F)(F)F)cc3)nc2c1" please.
86

====

# assay-name: Volume of distribution at steady state in dog at 2 mg/kg, iv
# Type: ADME, organism-based, Canis lupus familiaris
# Design: dose 2 mg/kg, route intravenous
# condition-set: in vivo, read-out: Vdss
recorded-metric: Vd (L/kg)
Only the number, expressed in L/kg, is required.

Tell me measured Vd for "CC(C)(O)c1ccccc1-c1ccc2[nH]c(/C=C/c3ccc(C(F)(F)F)cc3)nc2c1" please.
2.7

====

# target-under-test: Transient receptor potential cation channel subfamily V member 1 (Rattus norvegicus)
# Sequence (O35433 whole entry): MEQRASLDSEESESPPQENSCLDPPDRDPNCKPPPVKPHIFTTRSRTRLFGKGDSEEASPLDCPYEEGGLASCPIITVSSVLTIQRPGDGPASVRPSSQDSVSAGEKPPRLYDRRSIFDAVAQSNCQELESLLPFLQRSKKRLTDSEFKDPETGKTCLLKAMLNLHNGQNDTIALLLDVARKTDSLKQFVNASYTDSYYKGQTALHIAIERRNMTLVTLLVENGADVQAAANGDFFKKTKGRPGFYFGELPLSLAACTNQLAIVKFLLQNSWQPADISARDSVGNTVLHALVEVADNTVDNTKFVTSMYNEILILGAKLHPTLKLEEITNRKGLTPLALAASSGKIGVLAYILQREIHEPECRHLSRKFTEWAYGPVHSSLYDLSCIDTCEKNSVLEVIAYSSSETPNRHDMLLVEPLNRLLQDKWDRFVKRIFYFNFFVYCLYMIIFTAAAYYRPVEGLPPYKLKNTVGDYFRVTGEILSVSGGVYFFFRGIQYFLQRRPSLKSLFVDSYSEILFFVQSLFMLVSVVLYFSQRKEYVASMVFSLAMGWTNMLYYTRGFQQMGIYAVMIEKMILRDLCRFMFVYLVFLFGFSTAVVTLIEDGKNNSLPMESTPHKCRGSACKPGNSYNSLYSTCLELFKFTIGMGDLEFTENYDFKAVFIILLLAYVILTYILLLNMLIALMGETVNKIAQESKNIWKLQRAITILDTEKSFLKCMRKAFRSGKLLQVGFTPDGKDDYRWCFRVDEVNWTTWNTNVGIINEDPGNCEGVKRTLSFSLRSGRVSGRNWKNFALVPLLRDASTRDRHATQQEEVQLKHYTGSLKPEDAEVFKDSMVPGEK
# assay-name: Antagonist activity at recombinant rat TRPV1 expressed in HEK293 cells assessed as inhibition of capsaicin-induced Ca2+ influx preincubated for 5 mins followed by capsaicin challenge
recorded-metric: IC50

Under Transient receptor potential cation channel subfamily V member 1 (Rattus norvegicus): report IC50 of "CC(C)(O)c1ccccc1-c1ccc2[nH]c(/C=C/c3ccc(C(F)(F)F)cc3)nc2c1" .
21 nM

====

# assay-name: Metabolic stability in human liver microsomes assessed as compound remaining after 10 mins
# Format: ADME
# condition-set: liver microsomes, read-out: Stability
recorded-metric: remaining at 10 min

Below: 5 molecules and their reported remaining at 10 min.
CC(=O)c1ccccc1-c1ccc2[nH]c(/C=C/c3ccc(C(C)(C)C)cc3)nc2c1 = 12%
CC(C)(O)c1ccccc1-c1ccc2[nH]c(CCc3ccc(C(F)(F)F)cc3)nc2c1 = 45%
CC(C)(O)c1ccccc1-c1ccc2[nH]c(/C=C/c3ccc(C(F)(F)F)cc3)nc2c1 = 100%
CC(O)c1ccccc1-c1ccc2[nH]c(/C=C/c3ccc(C(F)(F)F)cc3)nc2c1 (stereo unspecified) = 97%
CC(C)(C)c1ccc(/C=C/c2nc3cc(-c4ccccc4NS(C)(=O)=O)ccc3[nH]2)cc1 = 9%

Tell me measured remaining at 10 min for "CS(=O)(=O)Nc1ccccc1-c1ccc2[nH]c(/C=C/c3ccc(C(F)(F)F)cc3)nc2c1" please.
85%

====

# assay-name: Half life in dog at 2 mg/kg, iv
# Type: ADME, organism-based, Canis lupus familiaris
# Set-up: dose 2 mg/kg, route intravenous
# condition-set: in vivo
recorded-metric: half-life (h)
Only the number, expressed in h, is required.

Tell me measured half-life for "CC(C)(O)c1ccccc1-c1ccc2[nH]c(/C=C/c3ccc(C(F)(F)F)cc3)nc2c1" please.
1.1
